# Target Or Test System: human C5 protein (human, UniProt P01031 19-673; P01031 678-1676)
# Method Description: cell-based or functional assay
Positions of bridges follow the written chain, without caps; N, C: chain ends. Non-standard residues stand in square brackets, D forms with d. Primed or numbered codes have the meaning given here. mXylyl(3) = bridging moiety between the two residues given in brackets; mXylyl″ = bridging moiety between the two marked residues; Trp(7-aza) = N[C@@H](Cc1c[nH]c2ncccc12)C(=O)O; Phg = N[C@H](C(=O)O)c1ccccc1; Tle = CC(C)(C)[C@H](N)C(=O)O; NMeS = CN[C@@H](CO)C(=O)O; Nva = CCC[C@H](N)C(=O)O; Sar = CNCC(=O)O
Measured Parameter: Avg. IC50, human hemolysis assay

Lab note: measured Avg. IC50, human hemolysis assay of Ac-[Nva]CYE[Sar][Tle]Y[Trp(7-aza)]E[Nva][Nva]PC-NH2 (linker 2-13 via mXylyl″) [R3010] was > 100 µM

Avg. IC50, human hemolysis assay recorded for this binder, Ac-[Nva]C[Phg]T[Trp(7-aza)]QY[NMeS]AC[Nva]-NH2 (linker 2-10 via mXylyl(3)) [R3098] , is > 100 µM

Short answer for Ac-[Nva]CYEN[Tle]YCEYP[Phg][Nva]-NH2 (linker 2-8 via mXylyl″) [R3017] : Avg. IC50, human hemolysis assay was > 100 µM
